# TARGET: T1, human IL-33 (R&D Systems, #3625-IL-010/CF) (human, UniProt O95760 112-270)
# T1 construct: also called hIL-33; huIL-33
# T1 sequence (looked up): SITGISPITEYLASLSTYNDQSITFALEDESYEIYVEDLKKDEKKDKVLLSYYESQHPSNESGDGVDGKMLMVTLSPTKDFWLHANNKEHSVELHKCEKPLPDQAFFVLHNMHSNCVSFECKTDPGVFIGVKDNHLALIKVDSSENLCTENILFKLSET
# METHOD_NOTES: SPR Biacore T200, 25 C
Readings of koff for the listed binders

{"BINDER": "H4H9659P (antibody, IgG4, V domains shown, also called RG7) VH: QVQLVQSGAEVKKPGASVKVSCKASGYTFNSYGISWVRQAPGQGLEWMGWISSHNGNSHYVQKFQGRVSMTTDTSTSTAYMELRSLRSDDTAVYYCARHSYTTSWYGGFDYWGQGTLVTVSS VL: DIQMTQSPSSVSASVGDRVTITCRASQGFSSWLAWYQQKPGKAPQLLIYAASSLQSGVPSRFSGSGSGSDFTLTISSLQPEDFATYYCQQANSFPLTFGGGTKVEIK", "koff (s⁻¹)": 0.000499}
{"BINDER": "10C12.38.H6.87Y.58I IgG4 (antibody, V domains shown, also called anti-IL33 10C12.38.H6.87Y.58I IgG4) VH: EVQLVESGGGLVQPGGSLRLSCAASGFTFSSFSMSWVRQAPGKGLEWVATISGGKTFTDYVDSVKGRFTISRDDSKNTLYLQMNSLRAEDTAVYYCTRANYGNWFFEVWGQGTLVTVSS VL: EIVLTQSPATLSLSPGERATLSCRASESVAKYGLSLLNWFQQKPGQPPRLLIFAASNRGSGIPARFSGSGSGTDFTLTISSLEPEDFAVYYCQQSKEVPFTFGQGTKVEIKR", "koff (s⁻¹)": 0.000613}
{"BINDER": "H4H9633P (antibody, IgG4, V domains shown, also called RG5) VH: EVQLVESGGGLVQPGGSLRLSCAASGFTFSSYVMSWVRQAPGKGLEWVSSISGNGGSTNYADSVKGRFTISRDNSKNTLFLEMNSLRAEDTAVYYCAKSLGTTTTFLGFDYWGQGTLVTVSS VL: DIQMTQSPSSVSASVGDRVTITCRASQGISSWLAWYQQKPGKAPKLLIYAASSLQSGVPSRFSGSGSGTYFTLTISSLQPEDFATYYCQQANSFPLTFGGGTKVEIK", "koff (s⁻¹)": 0.000462}
